- assayTarget: human A3AR (Homo sapiens, UniProt P0DMS8)
- Construct: expressed in transfected cells
- Sequence (P0DMS8 1-318): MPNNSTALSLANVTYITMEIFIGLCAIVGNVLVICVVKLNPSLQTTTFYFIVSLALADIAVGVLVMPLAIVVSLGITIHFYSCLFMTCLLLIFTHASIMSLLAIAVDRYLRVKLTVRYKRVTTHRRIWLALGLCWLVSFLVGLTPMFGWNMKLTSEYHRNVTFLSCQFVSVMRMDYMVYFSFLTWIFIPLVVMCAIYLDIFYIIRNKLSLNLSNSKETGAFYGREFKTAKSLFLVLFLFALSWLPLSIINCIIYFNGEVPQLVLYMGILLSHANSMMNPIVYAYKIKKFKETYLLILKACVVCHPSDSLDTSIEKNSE
- methodDescription: LOPAC library primary screen: single concentration (10 μM) inhibition of 25 nM CA200645 binding, PHERAstar FS
Counter-ions that a name gives are not always drawn.
propertyLabel: % 25 nM CA200645 binding
# number then unit; no other words

Take a look at these entries with their results.
[
  {
    "compound": "O=c1n(CCCN2CCN(c3cccc(Cl)c3)CC2)nc2ccccn12 [Trazodone hydrochloride]",
    "propertyLabel": "% 25 nM CA200645 binding",
    "experimentalValue": "104.7 ± 11.3%"
  },
  {
    "compound": "Cl.NC[C@@H]1O[C@H](C23CC4CC(CC(C4)C2)C3)Cc2c1ccc(O)c2O [A-77636 hydrochloride]",
    "propertyLabel": "% 25 nM CA200645 binding",
    "experimentalValue": "87.3 ± 8.5%"
  },
  {
    "compound": "C[C@@H](O)[C@H]1C(=O)N2C(C(=O)O)=C(SCCN=CN)C[C@H]12 [Imipenem monohydrate]",
    "propertyLabel": "% 25 nM CA200645 binding",
    "experimentalValue": "96.8 ± 2.2%"
  }
]

So for COC[C@H]1OC(=O)c2coc3c2[C@@]1(C)C1=C(C3=O)[C@@H]2CCC(=O)[C@@]2(C)C[C@H]1OC(C)=O , the logged % 25 nM CA200645 binding turned out to be 82.6 ± 17.7%

Memo: OCCN1CCN(CCCN2c3ccccc3C=Cc3ccccc32)CC1 [Opipramol dihydrochloride] , reported % 25 nM CA200645 binding: 100.5 ± 7.4%

Reported % 25 nM CA200645 binding ( Cl.O=c1cc(N2CCOCC2)oc2c(-c3ccccc3)cccc12 [LY-294,002 hydrochloride] ) = 94.6 ± 11.0%

====

- assayTarget: human A3AR (Homo sapiens)
- Construct: expressed in transfected cells
- Sequence (P0DMS8 1-318): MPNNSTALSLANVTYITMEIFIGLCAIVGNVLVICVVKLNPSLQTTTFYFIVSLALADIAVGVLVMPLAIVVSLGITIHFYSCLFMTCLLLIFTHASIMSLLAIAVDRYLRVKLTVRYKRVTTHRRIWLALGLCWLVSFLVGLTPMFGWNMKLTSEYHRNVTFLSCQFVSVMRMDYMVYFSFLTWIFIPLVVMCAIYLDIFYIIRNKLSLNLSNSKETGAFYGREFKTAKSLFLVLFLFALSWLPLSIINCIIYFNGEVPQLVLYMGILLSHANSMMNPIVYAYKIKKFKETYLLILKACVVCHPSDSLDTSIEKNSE
- methodDescription: LOPAC library primary screen: single concentration (10 μM) inhibition of 25 nM CA200645 binding, PHERAstar FS
Reported % 25 nM CA200645 binding values for the following compounds.
Hi, when you answer, please include the unit after the number. Thanks!

Solved entries (count: 5):
[
  {
    "compound": "Br.Oc1cc2c(c(Cl)c1O)CCNCC2c1ccccc1 (racemic) [(±)-6-Chloro-PB hydrobromide]",
    "assayTarget": "human A3AR (Homo sapiens)",
    "% 25 nM CA200645 binding": "99.3 ± 4.1%"
  },
  {
    "compound": "Cc1cnc(NC(=O)C2=C(O)c3ccccc3S(=O)(=O)N2C)s1 [Meloxicam sodium]",
    "assayTarget": "human A3AR (Homo sapiens)",
    "% 25 nM CA200645 binding": "93.6 ± 6.8%"
  },
  {
    "compound": "OC[C@H]1O[C@@H](n2cnc3c(NC4CCCCC4)ncnc32)[C@H](O)[C@@H]1O [N6-Cyclohexyladenosine]",
    "assayTarget": "human A3AR (Homo sapiens)",
    "% 25 nM CA200645 binding": "92.9 ± 12.9%"
  },
  {
    "compound": "Oc1cc(-c2ccccc2)nc2nc(Cl)ccc12",
    "assayTarget": "human A3AR (Homo sapiens)",
    "% 25 nM CA200645 binding": "77.8 ± 8.8%"
  },
  {
    "compound": "CC(C(O)c1ccc(O)cc1)N1CCC(Cc2ccccc2)CC1.CC(C(O)c1ccc(O)cc1)N1CCC(Cc2ccccc2)CC1.O=C(O)C(O)C(O)C(=O)O (stereo not shown) [Ifenprodil tartrate]",
    "assayTarget": "human A3AR (Homo sapiens)",
    "% 25 nM CA200645 binding": "95.4 ± 10.6%"
  }
]

# COc1ccc2[n-]c([S@@+]([O-])Cc3ncc(C)c(OC)c3C)nc2c1.COc1ccc2[n-]c([S@@+]([O-])Cc3ncc(C)c(OC)c3C)nc2c1.O.O.[Mg+2] [Esomeprazole magnesium dihydrate] with human A3AR (Homo sapiens): % 25 nM CA200645 binding is 81.5 ± 16.8%

Bench note, human A3AR (Homo sapiens): CNCC(O)c1ccc(O)c(O)c1.Cl (racemic) [(±)-Epinephrine hydrochloride] , % 25 nM CA200645 binding reads 95.7 ± 7.0%

Taken from paper PMC5733478.
